# testSystem: PAR1 (Cavia porcellus)
# Sequence (A0A286XH07 24-426): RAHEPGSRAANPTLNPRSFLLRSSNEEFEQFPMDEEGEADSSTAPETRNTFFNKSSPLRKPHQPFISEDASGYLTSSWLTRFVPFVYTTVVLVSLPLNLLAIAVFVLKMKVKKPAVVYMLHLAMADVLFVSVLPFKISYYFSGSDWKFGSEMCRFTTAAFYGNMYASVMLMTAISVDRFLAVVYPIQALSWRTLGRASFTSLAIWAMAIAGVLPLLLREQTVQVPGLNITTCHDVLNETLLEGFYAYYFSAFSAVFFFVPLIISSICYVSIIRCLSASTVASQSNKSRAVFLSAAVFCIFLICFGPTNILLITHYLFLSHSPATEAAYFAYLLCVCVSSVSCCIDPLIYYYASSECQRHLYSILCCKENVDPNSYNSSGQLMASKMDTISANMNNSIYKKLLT
# testProtocol: Activation of guinea pig platelets
observable: EC50 (nM)
Please respond with the number in nM and leave the unit unwritten.

Exercise: Lab request: please report EC50 under test system PAR1 (Cavia porcellus) for `CC(C)C[C@H](NC(=O)[C@H](CC(C)C)NC(=O)[C@H](Cc1ccccc1)NC(=O)[C@@H](N)CO)C(=O)N[C@@H](CCCN=C(N)N)C(=O)N[C@@H](CC(N)=O)C(=O)O`
Solution: 2500
